Every entry's value here was drawn from paper PMC12136037.

- test.system: ~100 representative kinases (Homo sapiens, UniProt O75385)
- Construct: Recombinant protein kinase domains with a concentration of 2 μM
- Sequence (O75385 whole entry, the tested form may be a part): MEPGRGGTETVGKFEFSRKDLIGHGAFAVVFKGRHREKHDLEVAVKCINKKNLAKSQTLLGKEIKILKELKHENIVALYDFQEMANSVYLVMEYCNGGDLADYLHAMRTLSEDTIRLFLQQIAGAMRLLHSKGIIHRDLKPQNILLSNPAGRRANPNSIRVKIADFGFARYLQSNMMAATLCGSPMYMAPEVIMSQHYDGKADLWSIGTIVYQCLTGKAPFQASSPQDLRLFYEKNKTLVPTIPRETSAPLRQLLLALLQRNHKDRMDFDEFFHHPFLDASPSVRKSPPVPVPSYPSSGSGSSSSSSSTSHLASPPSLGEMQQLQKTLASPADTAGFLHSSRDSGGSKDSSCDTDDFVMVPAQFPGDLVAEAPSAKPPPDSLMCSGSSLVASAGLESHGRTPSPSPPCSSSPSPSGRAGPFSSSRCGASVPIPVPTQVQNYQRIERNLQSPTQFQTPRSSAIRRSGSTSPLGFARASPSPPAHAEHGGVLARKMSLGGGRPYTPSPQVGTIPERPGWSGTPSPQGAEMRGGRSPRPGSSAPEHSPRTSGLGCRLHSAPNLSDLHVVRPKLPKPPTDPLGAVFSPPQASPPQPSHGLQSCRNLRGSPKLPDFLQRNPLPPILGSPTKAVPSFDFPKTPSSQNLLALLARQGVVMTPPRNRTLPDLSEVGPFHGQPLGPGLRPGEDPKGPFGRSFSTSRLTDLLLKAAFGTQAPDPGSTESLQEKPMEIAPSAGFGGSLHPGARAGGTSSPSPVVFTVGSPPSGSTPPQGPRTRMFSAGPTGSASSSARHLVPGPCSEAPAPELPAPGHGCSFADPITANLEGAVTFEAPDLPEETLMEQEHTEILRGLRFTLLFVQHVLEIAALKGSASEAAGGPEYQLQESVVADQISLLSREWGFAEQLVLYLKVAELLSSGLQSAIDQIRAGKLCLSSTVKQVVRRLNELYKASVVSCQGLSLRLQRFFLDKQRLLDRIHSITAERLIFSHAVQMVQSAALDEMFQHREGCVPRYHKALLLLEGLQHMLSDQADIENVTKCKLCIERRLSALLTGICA
- assay.text: DSF 100 kinase selectivity screen;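 also: compound tested at 20 µM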
- Type: binding
- condition.set: Protein ULK1; DSF; average of three replicates
observation.type: dTm
Please make sure the unit comes right after the number.

Examples with answers:
# line.notation, test.system, observation.type, result
records = [
    ("O=C(Nc1cccc(-c2c[nH]c3ncnc(N4CCOCC4)c23)c1)C1(C(=O)Nc2cccc3c2CCC3)CC1", "~100 representative kinases (Homo sapiens, UniProt O75385)", "dTm", "6.92 K"),
    ("CC(C)(C)c1cccc(NC(=O)C2(C(=O)Nc3cccc(-c4c[nH]c5ncnc(N6CCOCC6)c45)c3)CC2)c1", "~100 representative kinases (Homo sapiens, UniProt O75385)", "dTm", "9.16 K"),
    ("Cc1ccc(-n2nc(C(C)(C)C)cc2NC(=O)Nc2cccc(-c3c[nH]c4ncnc(N5CCOCC5)c34)c2)cc1", "~100 representative kinases (Homo sapiens, UniProt O75385)", "dTm", "10.70 K"),
]

Proceeding to the next compound to report its dTm.
Would you kindly share the measured dTm for Cc1cc(NC(=O)C2(C(=O)Nc3ccc(F)cc3)CC2)cc(-c2c[nH]c3ncnc(N4CCOCC4)c23)c1 ? 5.26 K
